Reported Index 1 (Relative Migration divided by the Average 157.5), HUVEC migration assay values follow for various binders
biological target: c-Met protein receptors on HUVEC (human, UniProt P08581 25-1390); assay: cell-based or functional assay
Sequence (P08581 25-1390): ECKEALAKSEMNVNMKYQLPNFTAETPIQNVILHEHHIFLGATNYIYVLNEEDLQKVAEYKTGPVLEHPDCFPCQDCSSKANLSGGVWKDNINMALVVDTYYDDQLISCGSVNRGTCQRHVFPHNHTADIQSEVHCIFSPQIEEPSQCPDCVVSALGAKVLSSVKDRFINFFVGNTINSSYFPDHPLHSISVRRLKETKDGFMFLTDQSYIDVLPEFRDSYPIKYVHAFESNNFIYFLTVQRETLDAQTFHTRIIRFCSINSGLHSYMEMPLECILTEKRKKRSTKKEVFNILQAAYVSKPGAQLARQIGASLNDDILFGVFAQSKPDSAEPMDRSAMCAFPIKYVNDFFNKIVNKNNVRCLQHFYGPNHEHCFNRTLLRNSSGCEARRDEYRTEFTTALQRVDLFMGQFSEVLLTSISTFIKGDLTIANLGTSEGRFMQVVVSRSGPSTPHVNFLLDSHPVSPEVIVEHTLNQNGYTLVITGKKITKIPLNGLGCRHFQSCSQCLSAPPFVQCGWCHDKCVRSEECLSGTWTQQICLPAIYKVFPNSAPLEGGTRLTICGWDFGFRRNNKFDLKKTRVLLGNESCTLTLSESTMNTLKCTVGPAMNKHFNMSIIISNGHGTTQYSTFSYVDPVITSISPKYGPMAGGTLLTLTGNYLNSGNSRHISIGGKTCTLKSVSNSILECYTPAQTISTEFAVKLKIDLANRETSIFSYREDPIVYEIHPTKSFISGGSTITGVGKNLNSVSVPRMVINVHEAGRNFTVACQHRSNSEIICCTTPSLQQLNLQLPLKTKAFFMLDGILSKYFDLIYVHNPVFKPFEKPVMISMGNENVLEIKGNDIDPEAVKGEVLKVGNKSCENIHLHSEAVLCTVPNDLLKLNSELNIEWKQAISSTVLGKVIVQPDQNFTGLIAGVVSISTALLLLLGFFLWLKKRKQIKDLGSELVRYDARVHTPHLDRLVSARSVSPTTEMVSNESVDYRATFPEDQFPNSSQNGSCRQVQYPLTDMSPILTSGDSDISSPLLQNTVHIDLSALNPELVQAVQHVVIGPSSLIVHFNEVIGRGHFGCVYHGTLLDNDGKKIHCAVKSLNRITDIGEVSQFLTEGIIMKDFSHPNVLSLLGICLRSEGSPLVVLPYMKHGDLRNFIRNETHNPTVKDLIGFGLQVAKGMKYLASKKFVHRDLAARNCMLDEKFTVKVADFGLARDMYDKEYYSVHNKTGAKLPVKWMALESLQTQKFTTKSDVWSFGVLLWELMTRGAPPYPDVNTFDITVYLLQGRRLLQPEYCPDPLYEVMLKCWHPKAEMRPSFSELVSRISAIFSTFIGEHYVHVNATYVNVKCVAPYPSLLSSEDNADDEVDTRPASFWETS
// no unit string in output, number only

binder	result_value
VH6/Vk0 (antibody, IgG1, V domains shown, Full IgG1/kappa expressed in HEK 293 EBNA cells) VH: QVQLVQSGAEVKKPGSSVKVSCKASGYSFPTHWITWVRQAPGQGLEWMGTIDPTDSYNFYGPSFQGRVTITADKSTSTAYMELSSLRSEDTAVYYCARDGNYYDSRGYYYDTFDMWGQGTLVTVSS VL: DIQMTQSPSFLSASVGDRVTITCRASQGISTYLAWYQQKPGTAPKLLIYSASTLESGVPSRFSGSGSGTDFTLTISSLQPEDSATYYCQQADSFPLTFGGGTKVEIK	0.962

What measured Index 1 (Relative Migration divided by the Average 157.5), HUVEC migration assay goes with VH0/Vk0 (antibody, IgG1, V domains shown, Full IgG1/kappa with the variable domains of 1E4; also called 1E4 antibody variant including the constant domain where the residues were substituted) VH: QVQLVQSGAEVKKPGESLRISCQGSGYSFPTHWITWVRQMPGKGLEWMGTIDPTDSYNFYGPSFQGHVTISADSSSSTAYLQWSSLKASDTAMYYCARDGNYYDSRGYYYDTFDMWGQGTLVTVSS VL: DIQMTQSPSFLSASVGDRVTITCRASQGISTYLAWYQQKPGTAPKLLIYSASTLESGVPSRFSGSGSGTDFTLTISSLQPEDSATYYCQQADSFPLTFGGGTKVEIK ?
0.951

What measured Index 1 (Relative Migration divided by the Average 157.5), HUVEC migration assay goes with VH4/Vk2 (antibody, IgG1, V domains shown, Full IgG1/kappa expressed in HEK 293 EBNA cells) VH: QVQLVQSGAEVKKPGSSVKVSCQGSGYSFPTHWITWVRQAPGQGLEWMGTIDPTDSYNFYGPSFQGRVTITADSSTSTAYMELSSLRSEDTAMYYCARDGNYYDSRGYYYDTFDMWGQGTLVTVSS VL: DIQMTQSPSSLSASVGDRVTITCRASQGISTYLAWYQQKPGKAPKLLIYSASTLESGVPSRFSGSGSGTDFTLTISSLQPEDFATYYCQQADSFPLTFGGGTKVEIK ?
1.13
